Reference for the values: patent EP4722208A1

# study_target: Recombinant NAMPT protein (Homo sapiens, UniProt P43490)
# Sequence (P43490 whole entry): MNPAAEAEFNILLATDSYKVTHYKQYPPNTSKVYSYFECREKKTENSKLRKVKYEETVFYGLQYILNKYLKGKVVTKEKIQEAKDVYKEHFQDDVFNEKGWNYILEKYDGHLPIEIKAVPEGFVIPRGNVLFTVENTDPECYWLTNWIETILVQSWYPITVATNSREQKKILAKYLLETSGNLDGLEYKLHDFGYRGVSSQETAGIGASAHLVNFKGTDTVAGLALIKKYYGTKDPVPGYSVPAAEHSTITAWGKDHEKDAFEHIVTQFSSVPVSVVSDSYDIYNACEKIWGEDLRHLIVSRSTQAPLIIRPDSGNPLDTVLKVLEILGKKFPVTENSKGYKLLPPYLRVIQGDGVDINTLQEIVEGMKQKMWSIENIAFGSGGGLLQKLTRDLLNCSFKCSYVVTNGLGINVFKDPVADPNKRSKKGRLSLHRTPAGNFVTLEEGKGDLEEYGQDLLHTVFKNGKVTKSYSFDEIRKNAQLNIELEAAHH
# protocol: NAMPT enzyme inhibition assay (BPS bioscience NAMPT Inhibitor Screening Assay Kit, fluorescence)
# run_parameters: 30 min pre-incubation, 2 h at 30°C, compound 1000 nM to 3 nM, n=2
Reported IC50 values for the following compounds.

Below are worked cases with known answers.
* Cn1ccc(CS(=O)(=O)c2ccc(C(=O)NCCc3ccc([N+](=O)[O-])nc3)cc2C#Cc2ccc(F)cc2)n1 | ≥ 1000 nM
* Cn1ccc(CNS(=O)(=O)c2ccc(C(=O)NCc3ccn4ccnc4c3)cc2C#Cc2ccc(F)cc2)n1 | < 500 nM

Record Cn1ccc(CS(=O)(=O)c2ccc(C(=O)NCc3ccn4ccnc4c3)cc2C#Cc2ccc3c(c2)CCNC3)n1 ; system Recombinant NAMPT protein (Homo sapiens, UniProt P43490); IC50 = < 500 nM

Record Cn1ccc(CS(=O)(=O)c2ccc(C(=O)NCc3ccc4nccn4c3)cc2C#Cc2ccc(N)cc2)n1 ; system Recombinant NAMPT protein (Homo sapiens, UniProt P43490); IC50 = < 500 nM

Record Cn1ccc(CS(=O)(=O)c2ccc(C(=O)NCc3ccn4ccnc4c3)cc2C#Cc2ccc(F)cc2)n1 ; system Recombinant NAMPT protein (Homo sapiens, UniProt P43490); IC50 = < 500 nM

Record Cc1cccc(CS(=O)(=O)c2ccc(C(=O)NCCCc3cn[nH]c3)cc2C#Cc2ccc(F)cc2)c1C ; system Recombinant NAMPT protein (Homo sapiens, UniProt P43490); IC50 = ≥ 1000 nM

Record Cn1ccc(CS(=O)(=O)c2ccc(C(=O)NCCCc3cn[nH]c3)cc2C#Cc2ccncc2)n1 ; system Recombinant NAMPT protein (Homo sapiens, UniProt P43490); IC50 = < 500 nM

----------
# study_target: Recombinant NAMPT protein (Homo sapiens)
# Construct: purchased BPS bioscience # 7176-1
# protocol: NAMPT enzyme inhibition assay (BPS bioscience NAMPT Inhibitor Screening Assay Kit, fluorescence)
# Assay type: biochemical
# run_parameters: 30 min pre-incubation, 2 h at 30°C, compound 1000 nM to 3 nM, n=2
Where a name gives a salt, the structure may show the parent alone.
value_type: IC50

* Nc1ccc(-n2ccc(CS(=O)(=O)c3ccc(C(=O)NCc4ccn5ccnc5c4)cc3C#Cc3ccc(F)cc3)n2)cc1 [compound 233] | < 500 nM
* O=C(NCc1ccn2ccnc2c1)c1ccc(S(=O)(=O)Cc2cc[nH]n2)c(C#Cc2ccc(F)cc2)c1 [compound 234] | < 500 nM
* O=C(NCCCc1cn[nH]c1)c1ccc(S(=O)(=O)Cc2ccn(-c3ccc(C(F)(F)F)cc3)n2)c(C#Cc2ccc(F)cc2)c1 [compound 4] | 500 to 1000 nM
* Nc1cccc(CS(=O)(=O)c2ccc(C(=O)NCc3ccn4ccnc4c3)cc2C#Cc2ccc(F)cc2)c1 [compound 147] | < 500 nM
* Cn1ccc(CS(=O)(=O)c2ccc(C(=O)NCc3cnc4nccn4c3)cc2C#Cc2ccc(F)cc2)n1 [compound 238] | < 500 nM

Record Cn1ccc(CS(=O)(=O)c2ccc(C(=O)NCCCc3cn[nH]c3)cc2C#Cc2ccc(F)cc2)n1 [compound 1] ; system Recombinant NAMPT protein (Homo sapiens); IC50 = < 500 nM

Record Cn1ccc(CS(=O)(=O)c2ccc(C(=O)NCCCc3cn[nH]c3)cc2C#Cc2ccc(C3CCNCC3)cc2)n1 [compound 245, hydrochloride] ; system Recombinant NAMPT protein (Homo sapiens); IC50 = < 500 nM

Record O=C(NCc1ccn2ccnc2c1)c1ccc(S(=O)(=O)Cc2ccn(C3CCNCC3)n2)c(C#Cc2ccc(F)cc2)c1 [compound 122] ; system Recombinant NAMPT protein (Homo sapiens); IC50 = ≥ 1000 nM

Record COc1cc(C#Cc2cc(C(=O)NCCCc3cn[nH]c3)ccc2S(=O)(=O)Cc2ccn(C)n2)ccc1C [compound 235] ; system Recombinant NAMPT protein (Homo sapiens); IC50 = < 500 nM

Record Cn1ccc(CS(=O)(=O)c2ccc(C(=O)NCc3ccn4ccnc4c3)cc2C#Cc2ccc(N)cc2)n1 [compound 228] ; system Recombinant NAMPT protein (Homo sapiens); IC50 = < 500 nM

Record Cn1ccc(CS(=O)(=O)c2ccc(C(=O)NCc3ccn4ccnc4c3)cc2C#Cc2ccc(N)c(F)c2)n1 [compound 241] ; system Recombinant NAMPT protein (Homo sapiens); IC50 = < 500 nM

Record Cn1ccc(CS(=O)(=O)c2ccc(C(=O)NCc3ccn4ccnc4c3)cc2C#Cc2ccc(N)nc2)n1 [compound 243] ; system Recombinant NAMPT protein (Homo sapiens); IC50 = < 500 nM

Record Cn1ccc(CS(=O)(=O)c2ccc(C(=O)NCc3ccn4ccnc4c3)cc2C#Cc2ccc(C(=O)NCCN3CCCCC3)cc2)n1 [compound 242] ; system Recombinant NAMPT protein (Homo sapiens); IC50 = 500 to 1000 nM

Record Cn1ccc(CS(=O)(=O)c2ccc(C(=O)NCc3ccn4ccnc4c3)cc2C#Cc2cccc(CN)c2)n1 [compound 232] ; system Recombinant NAMPT protein (Homo sapiens); IC50 = < 500 nM
